Target: full length SGK1 (Homo sapiens)
Construct: 125 μM full length SGK1 (Life Technologies Part #PR7358A); purchased Life Technologies PR7358A
Experiment: SGK1 inhibition Assay A (Caliper LabChip electrophoretic separation of fluorescent peptide substrate and phosphorylated product)
Assay type: biochemical
Conditions: Assay A; 20 μM ATP, 40 min incubation; read-out: SGK1 IC50
Counter-ions that a name gives are not always drawn.
PARAMETER MEASURED: pIC50
Schema: pIC50 number; meaning minus log10 of the concentration expressed in molar units.

INPUT: Fill in: pIC50 of Nc1ncnn2c(-c3ccnc(F)c3)cc(N3CCC[C@@H](NC(=O)c4csc5ccccc45)C3)c12 [Example 159, TFA] is ___
OUTPUT: 7.77

INPUT: Here is the next molecule: COC(=O)NCCOc1cc(C(F)F)sc1C(=O)N[C@@H]1CCCN(c2cc(-c3cnc(C#N)c(C)c3)n3ncnc(N)c23)C1 [Example 431]
OUTPUT: 7.85

INPUT: Same thing, different molecule: COc1cc(-c2cc(N3CCC[C@@H](NC(=O)c4cccc(N5CCN(C)CC5)n4)C3)c3c(N)ncnn23)ccn1 [Example 786]
OUTPUT: 8.22

INPUT: Can you handle CC(=O)N1CC=C(c2cc(N3CCC[C@@H](NC(=O)c4cccc(CN5CCN(C)CC5)n4)C3)c3c(N)ncnn23)C1 [Example 727] next?
OUTPUT: 6.79

INPUT: // next record Nc1ncnn2c(-c3ccnc(C(F)F)c3)cc(N3CCC[C@@H](NC(=O)c4ccc(C5=CCNCC5)s4)C3)c12 [Example 553]
OUTPUT: 7.80

INPUT: What about Cc1cc(-c2cc(N3CCC[C@@H](NC(=O)c4ccc(C)s4)C3)c3c(N)ncnn23)ccn1 [Example 133] ?
OUTPUT: 8.40

INPUT: Follow-up entry: CC(=O)N1CC=C(c2cc(N3CCC[C@@H](NC(=O)c4cccc(OC5CN6CCC5CC6)n4)C3)c3c(N)ncnn23)C1 (stereo partly shown) [Example 734]
OUTPUT: 8.00

====

Biological target: full length SGK1 (Homo sapiens, UniProt O00141)
Construct: 125 μM full length SGK1 (Life Technologies Part #PR7358A); purchased Life Technologies PR7358A
Sequence (O00141 1-431): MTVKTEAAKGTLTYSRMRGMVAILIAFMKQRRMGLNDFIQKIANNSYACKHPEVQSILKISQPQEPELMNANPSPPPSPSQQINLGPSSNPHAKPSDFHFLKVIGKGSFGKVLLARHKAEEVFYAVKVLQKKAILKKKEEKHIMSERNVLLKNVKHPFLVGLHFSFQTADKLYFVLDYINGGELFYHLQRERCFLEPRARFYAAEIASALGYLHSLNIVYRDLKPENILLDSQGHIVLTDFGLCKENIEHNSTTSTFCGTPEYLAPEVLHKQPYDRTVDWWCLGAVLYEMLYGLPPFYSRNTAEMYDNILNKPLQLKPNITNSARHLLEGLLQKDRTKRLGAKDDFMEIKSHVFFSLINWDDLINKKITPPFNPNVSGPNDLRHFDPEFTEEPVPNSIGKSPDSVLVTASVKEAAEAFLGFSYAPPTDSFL
Assay: SGK1 inhibition Assay A (Caliper LabChip electrophoretic separation of fluorescent peptide substrate and phosphorylated product)
Assay type: biochemical
Details: Assay A; 20 μM ATP, 40 min incubation; read-out: SGK1 IC50
Where a name gives a salt, the structure may show the parent alone.
Hi there, I'd appreciate the recorded IC50 for every entry that follows.
Write the numeric value and follow it with the unit.

INPUT: Give full length SGK1 (Homo sapiens, UniProt O00141) IC50 for Cc1cc(-c2cc(N3CCC[C@@H](NC(=O)c4sc(C(F)F)cc4OC4COC4)C3)c3c(N)ncnn23)cnc1C#N [Example 436]
OUTPUT: 12 nM

INPUT: Query CN(C)CCOc1cc(Cl)sc1C(=O)N[C@@H]1CCCN(c2cc(C3=CCN(C(=O)C4CC4)CC3)n3ncnc(N)c23)C1 [Example 182, TFA] next
OUTPUT: 35 nM

INPUT: For Nc1ncnn2c(C3=CCN(C(=O)C4CCNCC4)C3)cc(N3CCC[C@@H](NC(=O)c4ccc(Cl)s4)C3)c12 [Example 894] then?
OUTPUT: 14 nM

INPUT: Now the same for CC(=O)N1CC=C(c2cc(N3CCC[C@@H](NC(=O)c4sc5ccccc5c4OC4CCNCC4)C3)c3c(N)ncnn23)C1 [Example 655]
OUTPUT: 9 nM

====

Biological target: full length SGK1 (Homo sapiens)
Construct: 125 μM full length SGK1 (Life Technologies Part #PR7358A); purchased Life Technologies PR7358A
Assay: SGK1 inhibition Assay A (Caliper LabChip electrophoretic separation of fluorescent peptide substrate and phosphorylated product)
Assay type: biochemical
Details: Assay A; 20 μM ATP, 40 min incubation; read-out: SGK1 IC50
Where a name gives a salt, the structure may show the parent alone.
PARAMETER MEASURED: IC50 (nM)
Quick reminder: number only, in nM, skip the unit.

INPUT: What IC50 value was documented for this compound, Cc1ccc(C(=O)N[C@@H]2CCCN(c3cc(C4=CCN(S(C)(=O)=O)C4)n4ncnc(N)c34)C2)s1 ?
OUTPUT: 2

INPUT: Likewise for CC(=O)N1CC=C(c2cc(N3CCC[C@@H](NC(=O)c4nccn4C)C3)c3c(N)ncnn23)C1 ?
OUTPUT: 494

INPUT: What about COC(=O)N1CC=C(c2cc(N3CCC[C@@H](NC(=O)c4sc5ccccc5c4OCCN(C)C)C3)c3c(N)ncnn23)C1 ?
OUTPUT: 13

INPUT: Next compound: COC(=O)NCCOc1cc(C(F)F)sc1C(=O)N[C@@H]1CCCN(c2cc(-c3cncnc3)n3ncnc(N)c23)C1
OUTPUT: 60

INPUT: What would you report for Nc1ncnn2c(C3=CCN(C(=O)c4cnco4)C3)cc(N3CCC[C@@H](NC(=O)c4ccc(Cl)s4)C3)c12 ?
OUTPUT: 1

INPUT: Item: CC(=O)N1CC=C(c2cc(N3CCC[C@@H](NC(=O)c4ccccc4N(C)C)C3)c3c(N)ncnn23)C1
OUTPUT: 75

INPUT: Entry to check: COC(=O)N1CC=C(c2cc(N3CCC[C@@H](NC(=O)c4sc(Cl)cc4OCCN4CCC(F)(F)C4)C3)c3c(N)ncnn23)C1
OUTPUT: 17

INPUT: How about this compound: COc1cc(C(=O)N[C@@H]2CCCN(c3cc(C4=CN(S(C)(=O)=O)CC4)n4ncnc(N)c34)C2)ccn1
OUTPUT: 103

INPUT: Consider next the compound Nc1ncnn2c(-c3ccco3)cc(N3CCC[C@@H](NC(=O)c4ccc(Cl)s4)C3)c12 [Example 230, TFA] in the same way.
OUTPUT: 21

INPUT: Then this compound: CS(=O)(=O)c1ccc(-c2cc(N3CCC[C@@H](NC(=O)c4ccc(F)c(F)c4)C3)c3c(N)ncnn23)cc1
OUTPUT: 19

INPUT: Similarly, CS(=O)(=O)c1ccc(-c2cc(N3CCC[C@@H](NC(=O)c4cccc(Br)c4)C3)c3c(N)ncnn23)cc1 [Example 85, TFA] ?
OUTPUT: 27

INPUT: Another compound to look at: CC(=O)N1CC=C(c2cc(N3CCC[C@@H](NC(=O)c4sc(C(F)F)cc4C4CCNC4)C3)c3c(N)ncnn23)C1 (some centres unmarked) [Example 405]
OUTPUT: 304

INPUT: Repeat for the following compound: CC(=O)N1CC=C(c2cc(N3CCC[C@@H](NC(=O)c4sc(Cl)cc4OCC4CCCN4)C3)c3c(N)ncnn23)C1 (single isomer, unassigned) [Example 391E]
OUTPUT: 4

INPUT: Also check Cc1cc(CN2CCN(C)CC2)c(C(=O)N[C@@H]2CCCN(c3cc(-c4ccnc(F)c4)n4ncnc(N)c34)C2)s1
OUTPUT: 15

INPUT: Likewise for CC(=O)N1CC=C(c2cc(N3CCC[C@@H](NC(=O)c4sc(C5CC5)cc4OC4CCN(C(C)C)CC4)C3)c3c(N)ncnn23)C1 ?
OUTPUT: 35

INPUT: Next record, please: CN(C)CCOc1cc(Cl)sc1C(=O)N[C@@H]1CCCN(c2cc(-c3ccc(-n4cncn4)nc3)n3ncnc(N)c23)C1
OUTPUT: 19

INPUT: // next record CN(C)CCOc1cc(Cl)sc1C(=O)N[C@@H]1CCCN(c2cc(C3=CCN(C(=O)c4ncco4)C3)n3ncnc(N)c23)C1
OUTPUT: 3

INPUT: Thanks! And CC(=O)N1CC=C(c2cc(N3CCC[C@@H](NC(=O)c4sc5ccc(C#N)cc5c4OC4CCN(C(=O)OC(C)(C)C)CC4)C3)c3c(N)ncnn23)C1 ?
OUTPUT: 117

INPUT: Try CC(=O)N1CC=C(c2cc(N3CCC[C@@H](NC(=O)c4cccc(OC5CCN(C)CC5)n4)C3)c3c(N)ncnn23)C1 next.
OUTPUT: 16

INPUT: Nc1ncnn2c(-c3ccc4nnnn4c3)cc(N3CCC[C@@H](NC(=O)c4ccc(Cl)s4)C3)c12 , same question.
OUTPUT: 1

INPUT: Try this compound too: CC(=O)N1CC=C(c2cc(N3CCCC(NC(=O)c4sc(Cl)cc4OC4CCNC(C)C4)C3)c3c(N)ncnn23)C1 (single isomer, unassigned) [Example 623]
OUTPUT: 4

INPUT: Again, but for Nc1ncnn2c(C3=CCN(C(=O)c4ccncc4)C3)cc(N3CCC[C@@H](NC(=O)c4ccc(Cl)s4)C3)c12
OUTPUT: 28

INPUT: Now the same for Nc1ncnn2c(-c3cncnc3)cc(N3CCC[C@@H](NC(=O)c4cc5cc(F)ccc5[nH]4)C3)c12
OUTPUT: 164

INPUT: Now the same for Cc1nc(OC2CCN(C(C)C)CC2)c(C(=O)N[C@@H]2CCCN(c3cc(-c4ccc(C#N)nc4)n4ncnc(N)c34)C2)s1
OUTPUT: 7

INPUT: Next compound up: CC(=O)N1CC=C(c2cc(N3CCC[C@@H](NC(=O)c4sc(C(F)F)cc4OC4COC4)C3)c3c(N)ncnn23)C1
OUTPUT: 18

INPUT: CS(=O)(=O)c1ccc(-c2cc(N3CCC[C@@H](NC(=O)c4ccnc(F)c4)C3)c3c(N)ncnn23)cc1 [Example 32, TFA] , same question.
OUTPUT: 11
